assay details: chemical genetic growth profiling, strain panel (AID 1159580);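 note: tested at 20 µM; growth read once vehicle control cultures reached saturation at 30 °C; 1 = growth at the plate median or of vehicle wells; lower values mean less growth of the strain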
condition set: S. cerevisiae deletion strains, growth OD, locus YDL108W, strain KIN28, active compounds read low
About 2,000 (36%) of roughly 5,500 compounds were called active. Inconclusive results (about 18%) are left out. Some of the results follow.
recorded endpoint: normalized growth

INSERT INTO results (molecule, readout_value) VALUES
  ('O=C1Nc2ccccc2/C1=C\c1c(Cl)cccc1Cl', '0.974 (inactive)'),
  ('Cc1cc(Cl)ccc1NNC(=O)c1sccc1Br', '0.932 (inactive)'),
  ('c1ccc(-c2nnc(-c3ccccn3)nc2-c2ccccc2)cc1', '0.917 (inactive)'),
  ('FC(F)(F)c1cccc(NC(=S)NN=C2CCCCCC2)c1', '1 (inactive)'),
  ('Oc1c(Br)cc(Br)cc1C=Nc1ccc(Sc2ccccc2)nc1Sc1ccccc1', '0.926 (inactive)'),
  ('COc1ccc(/C=C2/C(=O)Nc3ccccc32)cc1', '0.892 (active)'),
  ('Oc1c(Br)cc(Br)cc1/C=N\n1cnnc1', '0.945 (inactive)'),
  ('CC(C)(C)NC(=S)N/N=C\c1ccccc1O', '0.947 (inactive)'),
  ('O=S(=O)(CS(=O)(=O)Oc1ccc(Cl)c(Cl)c1)Oc1ccc(Cl)c(Cl)c1', '0.937 (inactive)'),
  ('Oc1c(Cl)cc(Cl)cc1C=Nc1ccc(Sc2ccccc2)nc1Sc1ccccc1', '0.945 (inactive)'),
  ('Oc1c(Br)cc(Br)cc1C=Nc1ccccn1', '0.978 (inactive)'),
  ('O=C1Nc2ccccc2/C1=C/c1ccc(Oc2ccccc2)nc1', '0.967 (inactive)'),
  ('COc1ccccc1NC(=S)N/N=C\c1ccccc1O', '0.954 (inactive)');

These data points were gathered from PubChem BioAssay AID1159580.
